# measurement_notes: anthelmintic activity against nematode growth – whole organism, log2 fold change (AID 1259336);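 further: growth scored by imaging after five days at 20 °C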
# condition_summary: C. elegans growth, anthelmintic screen; stronger effect = lower value
Assignment: determine reported log2 fold change growth for the given molecules.
Numbers only.

Illustrative cases are given below, each with its answer.
[
  {
    "molecule": "CO[C@@H](C(=O)N1Cc2[nH]nc(NC(=O)c3ccc(N4CCN(C)CC4)cc3)c2C1)c1ccccc1",
    "assay_value": 0.339
  },
  {
    "molecule": "Cn1c(=O)c2c(S(C)(=O)=O)snc2n(C)c1=O",
    "assay_value": 0.155
  }
]

Please state, for each entry, its recorded log2 fold change growth.
1. NC[C@@H](c1cccs1)S(=O)(=O)c1ccccc1
2. COc1cccc(-n2nnnc2S(C)(=O)=O)c1
3. Nc1ccc2ncnc(Nc3ccc(OCc4cccc(F)c4)c(Cl)c3)c2c1
4. Cc1cnc(CCNC(=O)c2cc(-c3ccc(Cl)cc3)cs2)[nH]1

1: 0.289; 2: 0.157; 3: -0.0667; 4: -0.147

---

# measurement_notes: anthelmintic activity against nematode growth – whole organism, log2 fold change (AID 1259336);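 further: growth scored by imaging after five days at 20 °C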
# condition_summary: C. elegans growth, anthelmintic screen; stronger effect = lower value
The source made the active and inactive calls. No stated cut-off is given here; in the data, active means log2 fold change growth below about -1.8; inactive means the rest.
quantity_name: log2 fold change growth

[
  {
    "compound": "Nc1ncnc2c1c(Cc1cccc3ccccc13)nn2CC1CCNCC1",
    "quantity_name": "log2 fold change growth",
    "assay_value": "-0.11 (inactive)"
  }
]

Please state, for each entry, its recorded log2 fold change growth.
1. CNC(=O)[C@@H]1Cc2ccccc2N1C(=O)Cc1ccc(F)cc1
2. Cc1nn(C(=O)Nc2cccc(C(F)(F)F)c2)c(C)c1Sc1ncccn1
3. Cc1noc(C)c1C(=O)N1CCC[C@H](c2[nH]c3c(C)cccc3c2-c2ccncc2)C1
4. NCCC[C@@](N)(C(=O)O)C(F)F
5. O=C(NC1CC1)c1ccc(N2CCC(Cc3ccccc3)CC2)nc1
6. Cc1ccc2[nH]c3c(NCCN(C)C)ncnc3c2c1
7. O=C(Nc1ccc(N2CCNCC2)cc1)c1ccn2ncc(-c3cccc(Cl)c3)c2n1

1: 0.145 (inactive); 2: -0.494 (inactive); 3: -0.149 (inactive); 4: 0.109 (inactive); 5: 0.0189 (inactive); 6: 0.351 (inactive); 7: -0.0705 (inactive)

Please state, for each entry, its recorded log2 fold change growth.
1. CCOC(=O)c1noc(N)c1-c1ccccc1
2. O=C([C@H](Cc1c[nH]c2ccccc12)NS(=O)(=O)c1ccc(Cl)cc1)N1CCCCC1

1: 0.292 (inactive); 2: -0.129 (inactive)

Please state, for each entry, its recorded log2 fold change growth.
1. CC[C@H](C)NC(=O)c1ccc(NC(=O)C2(c3ccccc3)CCCC2)cc1
2. O=C(NC1CCCCC1)N1CCN(Cc2ccc3c(c2)OCO3)CC1
3. Clc1cccc([C@H](c2ccc(CN3CCNCC3)cc2)n2ccnc2)c1
4. CC(C)(C)c1cc(C(=O)Nc2cccnc2)cc(C(=O)Nc2cccnc2)c1
5. Nc1ncc(-c2cn[nH]c2)cc1-c1nc2ncc(Cl)cc2[nH]1
6. c1coc(CNc2nc(N3CCCCC3)nc3ccccc23)c1
7. Cc1cc(NC(=O)c2ccc(Oc3ccc(Cl)cc3O)o2)no1

["0.546 (inactive)", "-0.153 (inactive)", "-0.356 (inactive)", "0.00293 (inactive)", "-0.454 (inactive)", "-0.141 (inactive)", "0.201 (inactive)"]

Please state, for each entry, its recorded log2 fold change growth.
1. CC1CCCN(C(=O)C(C)Nc2cc(Cl)ccc2N2CCOCC2)C1 (configuration not stated)
2. Cc1cccc(-c2nc(Nc3ccncn3)c3sccc3n2)n1
3. CC1(O)CC(c2nc(-c3ccc4ccc(-c5ccccc5)nc4c3)c3c(N)nccn23)C1 (configuration not stated)
4. COC(=O)c1ccc(F)cc1NS(=O)(=O)c1cccc(-c2cnn(Cc3ccccc3)c2)c1

1. 0.538 (inactive)
2. 0.438 (inactive)
3. -0.23 (inactive)
4. -0.413 (inactive)

Query (compound): Nc1ncnc2c1ncn2[C@@H]1O[C@H](COS(=O)(=O)NC(=O)c2ccccc2O)[C@@H](O)[C@H]1O ; field requested: log2 fold change growth
0.353 (inactive)
